system tested: Beta-lactamase (Enterobacter cloacae) (UniProt P05364)
Sequence (P05364 21-381 limits assumed): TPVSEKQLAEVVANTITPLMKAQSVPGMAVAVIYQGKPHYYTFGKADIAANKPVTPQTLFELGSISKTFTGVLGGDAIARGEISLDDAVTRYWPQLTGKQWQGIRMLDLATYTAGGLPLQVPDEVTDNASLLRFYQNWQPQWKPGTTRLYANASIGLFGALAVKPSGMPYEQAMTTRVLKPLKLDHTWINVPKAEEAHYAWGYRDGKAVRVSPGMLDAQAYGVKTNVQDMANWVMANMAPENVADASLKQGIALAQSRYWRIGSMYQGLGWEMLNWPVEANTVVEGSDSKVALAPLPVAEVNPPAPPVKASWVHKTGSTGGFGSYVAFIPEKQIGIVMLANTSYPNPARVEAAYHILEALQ
procedure details: Steady state kinetic as limiting rate of Enterobacter cloacae P99 Beta-lactamase catalyzed hydrolysis
Strictly below 5 s⁻¹ in K cat: class 1. Otherwise: class 0.

In [3]: df
Out[3]:
                                   molecule  group_label
0  O=C(Cc1ccccc1)NC1Cc2cccc(C(=O)O)c2OC1=O (stereo not given)      class 0
1  O=C(O)c1ccc2c(c1)OC(=O)C(C(=O)NCc1ccccc1)C2 (stereo not given)      class 1
2  O=C(Cc1ccccc1)NC1Cc2ccc(C(=O)O)cc2OC1=O (stereo not given)      class 0
3  CC(=O)OCC1=C(C(=O)O)N2C(=O)[C@@H](NC(=O)Cc3cccs3)[C@H]2SC1      class 0
4  O=C(O)c1cccc2c1OC(=O)C(C(=O)NCc1ccccc1)C2 (stereo not given)      class 1

###

system tested: Beta-lactamase TEM (Escherichia coli) (UniProt P62593)
Sequence (P62593 whole entry): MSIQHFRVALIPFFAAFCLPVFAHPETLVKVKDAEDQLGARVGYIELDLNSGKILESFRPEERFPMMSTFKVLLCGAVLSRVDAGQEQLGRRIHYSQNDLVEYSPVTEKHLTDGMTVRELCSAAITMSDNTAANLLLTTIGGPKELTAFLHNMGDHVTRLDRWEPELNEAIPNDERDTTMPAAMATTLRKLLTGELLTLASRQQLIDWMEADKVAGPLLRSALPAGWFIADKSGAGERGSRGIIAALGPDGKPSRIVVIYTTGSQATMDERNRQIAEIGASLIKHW
procedure details: Steady state kinetic as limiting rate of TEM-2 beta-lactamase hydrolysis
assay metric: K cat (s⁻¹)

                                   molecule                             system_tested  bound_sign  reading
0  O=C(Cc1ccccc1)NC1Cc2ccc(C(=O)O)cc2OC1=O (stereo not given)  Beta-lactamase TEM (Escherichia coli) (UniProt P62593)           >        1
1  CC(=O)OCC1=C(C(=O)O)N2C(=O)[C@@H](NC(=O)Cc3cccs3)[C@H]2SC1  Beta-lactamase TEM (Escherichia coli) (UniProt P62593)           =      120
2  O=C(O)c1cccc2c1OC(=O)C(C(=O)NCc1ccccc1)C2 (stereo not given)  Beta-lactamase TEM (Escherichia coli) (UniProt P62593)           =     25.5
3  O=C(Cc1ccccc1)NC1Cc2cccc(C(=O)O)c2OC1=O (stereo not given)  Beta-lactamase TEM (Escherichia coli) (UniProt P62593)           =     2.07
4  O=C(O)c1ccc2c(c1)OC(=O)C(C(=O)NCc1ccccc1)C2 (stereo not given)  Beta-lactamase TEM (Escherichia coli) (UniProt P62593)           >     0.02

###

system tested: Beta-lactamase (Staphylococcus aureus)
procedure details: Steady state kinetic as limiting rate of Staphylococcus aureus PC1 Beta-lactamase hydrolysis
assay metric: K cat (s⁻¹)

>>> print(df.to_string())
                                   molecule  bound_sign  reading
0  CC(=O)OCC1=C(C(=O)O)N2C(=O)[C@@H](NC(=O)Cc3cccs3)[C@H]2SC1           =    0.001
1  O=C(O)c1cccc2c1OC(=O)C(C(=O)NCc1ccccc1)C2 (stereo not given)           =     0.01
2  O=C(O)c1ccc2c(c1)OC(=O)C(C(=O)NCc1ccccc1)C2 (stereo not given)           >    0.005
3  O=C(Cc1ccccc1)NC1Cc2cccc(C(=O)O)c2OC1=O (stereo not given)           =   0.0047
4  O=C(Cc1ccccc1)NC1Cc2ccc(C(=O)O)cc2OC1=O (stereo not given)           =     0.02
